Tested on: guinea-pig eosinophils
Test: Chemotaxis inhibition assay: LTB4-induced chemotaxis in guinea-pig eosinophils
Type: cell-based
Conditions: test substance 1×10^−5 M, LTB4 10^−8 M, 2 hours
attribute measured: Inhibition (%) of LTB4-induced chemotaxis

# compound structure, meas value
measured = [
    ("CCOC(=O)C(C)(C)n1c(=O)c2ccccc2n(CCCCN2CCC(OC(c3ccccc3)c3ccccc3)CC2)c1=O.Cl", "52%"),
]

Looking up CN(CCc1ccccc1)C(=O)Cn1c(=O)c2ccccc2n(CCCCN2CCC(OC(c3ccccc3)c3ccccc3)CC2)c1=O.Cl , I see its Inhibition (%) of LTB4-induced chemotaxis listed as 73%

Looking up COC(=O)C(C)(C)n1c(=O)c2ccccc2n(CCCCN2CCC(OC(c3ccccc3)c3ccccc3)CC2)c1=O.Cl , I see its Inhibition (%) of LTB4-induced chemotaxis listed as 77%

Looking up CC(=O)OCC(=O)Nc1ccc2c(c1)c(=O)[nH]c(=O)n2CCCCN1CCC(OC(c2ccccc2)c2ccccc2)CC1 , I see its Inhibition (%) of LTB4-induced chemotaxis listed as 52%

====

The following compounds are shown together with reported melting point values.

# compound structure, melting point
measured = [
    ("O=C(O)c1ccc2c(=O)[nH]c(=O)n(CCCCN3CCC(OC(c4ccccc4)c4ccccc4)CC3)c2c1", "177 to 179 °C"),
]

Looking up O=c1[nH]c(=O)n(CCCCN2CCC(OC(c3ccccc3)c3ccccc3)CC2)c2ccccc12 , I see its melting point listed as 131 to 133 °C

Looking up CS(=O)(=O)Nc1ccc2c(c1)c(=O)[nH]c(=O)n2CCCCN1CCC(OC(c2ccccc2)c2ccccc2)CC1.Cl , I see its melting point listed as 225 to 227 °C

Looking up Nc1ccc2c(=O)[nH]c(=O)n(CCCCN3CCC(OC(c4ccccc4)c4ccccc4)CC3)c2c1 , I see its melting point listed as 162 to 164 °C

Looking up CN(C)c1ccc2c(c1)c(=O)[nH]c(=O)n2CCCCN1CCC(OC(c2ccccc2)c2ccccc2)CC1 , I see its melting point listed as 165 to 167 °C

Looking up CC(C)(C)n1c(=O)c2ccccc2n(CCCCN2CCC(OC(c3ccccc3)c3ccccc3)CC2)c1=O.Cl , I see its melting point listed as 229 to 231 °C

Looking up COC(=O)Cn1c(=O)c2ccccc2n(CCCN2CCC(OC(c3ccccc3)c3ccccc3)CC2)c1=O , I see its melting point listed as 109 to 110 °C

====

attribute measured: melting point

# compound, melting point
data = [
    ("O=c1[nH]c2ccccc2c(=O)n1CCCCN1CCC(OC(c2ccccc2)c2ccccc2)CC1 [Example 80]", "140 to 142 °C"),
    ("Cl.O=c1[nH]c(=O)n(CCCCN2CCN(C(c3ccccc3)c3ccccc3)CC2)c2ccccc12", "161 to 163 °C"),
    ("COC(=O)c1ccc2c(=O)[nH]c(=O)n(CCCCN3CCC(OC(c4ccccc4)c4ccccc4)CC3)c2c1 [Example 85]", "192 to 194 °C"),
]

Looking up Cl.O=c1[nH]c(=O)n(CCCCN2CCC(c3c[nH]c4ccccc34)CC2)c2ccccc12 , I see its melting point listed as 250 to 252 °C

Looking up O=C(O)Cn1c(=O)c2ccccc2n(CCCCN2CCC(OC(c3ccccc3)c3ccccc3)CC2)c1=O [Example 50] , I see its melting point listed as 184 to 186 °C

====

attribute measured: melting point

Worked cases, answers included:
# compound structure, meas value
records = [
    ("CCOC(=O)CCNC(=O)Cn1c(=O)c2ccccc2n(CCCCN2CCC(OC(c3ccccc3)c3ccccc3)CC2)c1=O.Cl", "123 to 124 °C"),
    ("O=C(O)Cn1c(=O)c2ccccc2n(CCCN2CCC(OC(c3ccccc3)c3ccccc3)CC2)c1=O", "170 to 172 °C"),
    ("O=C(O)CCCCn1c(=O)c2cc(O)ccc2n(CCCCN2CCC(OC(c3ccccc3)c3ccccc3)CC2)c1=O", "234 to 236 °C"),
]

Looking up Cc1ccc2c(c1)c(=O)[nH]c(=O)n2CCCCN1CCC(OC(c2ccccc2)c2ccccc2)CC1 , I see its melting point listed as 180 to 182 °C

Looking up O=C(O)CCCCCn1c(=O)c2ccccc2n(CCCCN2CCC(OC(c3ccccc3)c3ccccc3)CC2)c1=O , I see its melting point listed as 155 to 157 °C

Looking up CCOC(=O)CCCCCn1c(=O)c2ccccc2n(CCCCN2CCC(OC(c3ccccc3)c3ccccc3)CC2)c1=O.Cl , I see its melting point listed as 149 to 151 °C

Looking up O=C(O)CCn1c(=O)n(CCCCN2CCC(OC(c3ccccc3)c3ccccc3)CC2)c(=O)c2ccccc21 , I see its melting point listed as 110 to 112 °C

====

The following compounds are shown together with reported melting point values.

# compound structure, meas value
measured = [
    ("Cl.O=c1[nH]c(=O)n(CCCCN2CCC(OC(c3ccccc3)c3ccccc3)CC2)c2ncccc12", "121 to 123 °C"),
    ("O=c1[nH]c(=O)n(CCCCN2CCC(OC(c3ccccc3)c3ccccc3)CC2)c2ccc([N+](=O)[O-])cc12", "211 to 213 °C"),
    ("O=c1[nH]c(=O)n(CCCCN2CCC(OC(c3ccccc3)c3ccccc3)CC2)c2cc([N+](=O)[O-])ccc12", "214 to 215 °C"),
]

Kindly review the next compound as well.
Looking up Cl.O=c1c2ccccc2n(CCCCN2CCC(OC(c3ccccc3)c3ccccc3)CC2)c(=O)n1C1CCCCC1 , I see its melting point listed as 206 to 208 °C

====

The following compounds are shown together with reported melting point values.

Worked cases, answers included:
# compound structure, melting point
records = [
    ("O=C(O)c1ccc2c(c1)c(=O)[nH]c(=O)n2CCCCN1CCC(OC(c2ccccc2)c2ccccc2)CC1", "161 to 163 °C"),
    ("COC(=O)Cn1c(=O)c2ccccc2n(CCCCN2CCC(OC(c3ccccc3)c3ccccc3)CC2)c1=O", "91 to 93 °C"),
    ("COC(=O)C(C)(C)c1ccc2c(c1)c(=O)[nH]c(=O)n2CCCCN1CCC(OC(c2ccccc2)c2ccccc2)CC1.Cl", "223 to 225 °C"),
    ("O=C(O)CCn1c(=O)c2ccccc2n(CCCN2CCC(OC(c3ccccc3)c3ccccc3)CC2)c1=O", "150 to 151 °C"),
]

Kindly review the next compound as well.
Looking up O=C(O)CC(=O)Nc1ccc2c(c1)c(=O)[nH]c(=O)n2CCCCN1CCC(OC(c2ccccc2)c2ccccc2)CC1 , I see its melting point listed as 166 to 168 °C

====

Where a name gives a salt, the structure may show the parent alone.
attribute measured: melting point

Worked cases, answers included:
# compound, melting point
records = [
    ("O=C(O)CCn1c(=O)c2ccccc2n(CCCCN2CCC(OC(c3ccccc3)c3ccccc3)CC2)c1=O", "107 to 108 °C"),
    ("Cl.O=c1[nH]c(=O)n(CCCN2CCC(OC(c3ccccc3)c3ccccc3)CC2)c2ncccc12", "131 to 133 °C"),
    ("N#Cn1c(=O)c2ccccc2n(CCCCN2CCC(OC(c3ccccc3)c3ccccc3)CC2)c1=O", "106 to 107 °C"),
]

Looking up O=c1[nH]c2ccccc2c(=O)n1CCCN1CCC(OC(c2ccccc2)c2ccccc2)CC1 , I see its melting point listed as 173 to 175 °C

Looking up O=C(O)Cn1c(=O)n(CCCCN2CCC(OC(c3ccccc3)c3ccccc3)CC2)c(=O)c2ccccc21 , I see its melting point listed as 153 to 155 °C

Looking up O=C(O)CCn1c(=O)n(CCCN2CCC(OC(c3ccccc3)c3ccccc3)CC2)c(=O)c2ccccc21 , I see its melting point listed as 237 to 238 °C

Looking up O=c1[nH]c(=O)n(CCCCN2CCC(OC(c3ccccc3)c3ccccc3)CC2)c2ccc(Cl)cc12 , I see its melting point listed as 209 to 210 °C

Looking up COc1ccc(Cn2c(=O)c3ccccc3n(CCCCN3CCC(OC(c4ccccc4)c4ccccc4)CC3)c2=O)cc1 , I see its melting point listed as 99 to 100 °C

Looking up O=c1[nH]c(=O)n(CCCCCN2CCC(OC(c3ccccc3)c3ccccc3)CC2)c2ccccc12 , I see its melting point listed as 173 to 174 °C

Looking up Cl.Cn1c(=O)c2ccccc2n(CCCN2CCC(OC(c3ccccc3)c3ccccc3)CC2)c1=O , I see its melting point listed as 127 to 128 °C

Looking up O=C(O)CCCn1c(=O)n(CCCCN2CCC(OC(c3ccccc3)c3ccccc3)CC2)c(=O)c2ccccc21 , I see its melting point listed as 227 to 229 °C

Looking up COC(=O)C1(n2c(=O)c3ccccc3n(CCCCN3CCC(OC(c4ccccc4)c4ccccc4)CC3)c2=O)CCCC1.Cl , I see its melting point listed as 178 to 180 °C

Looking up Nc1ccc2c(c1)c(=O)[nH]c(=O)n2CCCCN1CCC(OC(c2ccccc2)c2ccccc2)CC1 , I see its melting point listed as 131 to 133 °C

Looking up N#CCCCCn1c(=O)c2ccccc2n(CCCCN2CCC(OC(c3ccccc3)c3ccccc3)CC2)c1=O (as salt: hydrochloride) , I see its melting point listed as 119 to 121 °C

Looking up O=c1[nH]c(=O)n(CCCN2CCC(OC(c3ccccc3)c3ccccc3)CC2)c2ccccc12 , I see its melting point listed as 149 to 151 °C
